Can you tell me pKa for the items I'm about to list?
conditions: acidic group
One number for each entry.

These recorded examples may help you get a feel for the data.
NC(=O)CS; 8.22
C[NH2+]CCS; 8.02
O=C([O-])C[NH+](CC(=O)[O-])Cc1ccccc1O; 8.17

Lookup: Can you look up the measured pKa of NC(=O)CS(=O)(=O)NC(N)=O for me?
Found: 5.05

---

details: basic group
metric: pKa
Numbers only.

Before answering, review these 8 worked examples.
COc1cc2c(cc1OC)C(=O)Cc1ccc3c(c1CN(C)CC2)OCO3; 8.09
CNCC(=O)Nc1c(C)cccc1C; 7.99
Cc1cnn(C)c1C; 3.58
CCCCCCCP(=O)(CCCCCCC)CCCCCCC; 4.65
C=CCC(C)(O)CN(CC)CC (centres undefined); 9.71
NC(=S=O)c1ccccc1; 0.8
O=C(CCl)CCl; 11
CC[C@]1(O)C[C@@H](C)N[C@H]2CCCC[C@@H]21; 9.71

Batch request: pKa per item, same order as input.
1. Nc1ccc(F)cc1
2. O=C([O-])[C@@H](NCC[NH2+][C@@H](C(=O)[O-])c1ccccc1O)c1ccccc1O
3. Cc1nc(CO)[nH]c1C
4. NCC(=O)Nc1ccccc1

Found:
[4.64, 6.36, 7.88, 8.12]

Hi there! I need pKa for each item below, if you can.
1. C1CC2CC1NN2
2. CCOC(=O)CN
3. C(=C/c1ccncc1)/c1ccccc1
4. COc1cc([N+](=O)[O-])cc(C(=O)N[C@@H]2C[C@H]3CC[C@@H](C2)N3Cc2ccccc2)c1OC

Found:
[7.94, 7.74, 5.77, 8.7]

For every listed record, write down its pKa.
1. Nc1cc2c(cc1Br)CCCC2
2. Cc1ccc(N)c(N)c1
3. Nc1nc([O-])c2nc[nH]c2n1
4. CCN1CCCCC1
5. CCC(N)(CO)CO
6. COC(=O)C1=CCCNC1
7. Nc1nc(N)nc(Nc2ccccc2)n1
8. NCc1ccccc1O

Found:
[3.05, 5, 9.3, 10.7, 8.8, 8.7, 4.65, 8.89]

Reference source: the pKa sets of Baltruschat and Czodrowski (2020)
